Molecular target: human calpain I (Homo sapiens, UniProt P07384)
Construct: The isolation of calpain from human erythrocytes was similar to that described by Wang et al. (1988); partially purified on DEAE-Sephacel and phenyl-Sepharose CL-4B
Sequence (P07384 whole entry): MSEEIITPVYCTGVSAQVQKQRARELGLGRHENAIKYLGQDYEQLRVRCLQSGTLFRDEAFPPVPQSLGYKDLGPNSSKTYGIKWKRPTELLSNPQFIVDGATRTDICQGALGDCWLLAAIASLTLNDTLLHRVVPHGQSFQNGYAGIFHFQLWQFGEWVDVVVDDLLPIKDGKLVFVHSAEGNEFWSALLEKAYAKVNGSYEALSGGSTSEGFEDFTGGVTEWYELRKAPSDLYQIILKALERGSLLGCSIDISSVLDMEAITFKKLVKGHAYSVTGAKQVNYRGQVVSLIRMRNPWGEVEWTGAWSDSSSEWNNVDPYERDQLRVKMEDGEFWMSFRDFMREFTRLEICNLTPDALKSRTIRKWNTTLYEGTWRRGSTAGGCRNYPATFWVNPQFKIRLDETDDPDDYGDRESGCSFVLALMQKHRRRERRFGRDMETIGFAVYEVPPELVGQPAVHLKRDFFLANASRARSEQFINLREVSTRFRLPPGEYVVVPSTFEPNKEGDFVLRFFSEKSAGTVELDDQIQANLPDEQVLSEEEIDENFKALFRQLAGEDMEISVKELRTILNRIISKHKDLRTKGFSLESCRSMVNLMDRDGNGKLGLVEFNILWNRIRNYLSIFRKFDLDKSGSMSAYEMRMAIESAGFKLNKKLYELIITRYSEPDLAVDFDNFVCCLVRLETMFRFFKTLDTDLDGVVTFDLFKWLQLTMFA
Sequence (P04632 whole entry partner): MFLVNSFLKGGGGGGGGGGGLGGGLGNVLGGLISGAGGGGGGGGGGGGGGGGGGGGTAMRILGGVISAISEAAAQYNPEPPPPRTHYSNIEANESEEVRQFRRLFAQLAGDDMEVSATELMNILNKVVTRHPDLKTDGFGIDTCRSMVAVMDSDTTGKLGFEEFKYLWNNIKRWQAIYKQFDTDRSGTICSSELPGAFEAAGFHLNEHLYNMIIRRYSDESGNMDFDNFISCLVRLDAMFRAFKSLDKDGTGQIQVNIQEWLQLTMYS
Assay: Calpain I Inhibition Assay (3H-acetyl casein degradation)
Conditions: human erythrocyte calpain I; 3H-acetyl Casein substrate; 25° C., 2 hours incubation; read-out: IC50 against human calpain I
Method: Compounds of the present invention were tested for calpain I inhibition activity using the following assay method. Calpain I InhibitionAssay Isolation of Human erythrocyte Calpain I […] The tritated assay is a modification of that described by Gopalakrishna, R. and Barsky, S.H., Anal. Biochem., 148, 413,1985. […] Unlabled casein was added, samples were centrifuged and 0.5 mL of the supernatant was counted in 5 mL of Ready Protein liquid scintillation cocktail for 2 min. […]
pIC50: −log10 of the molar value.
Endpoint label: pIC50

Mol	Tested on	Endpoint label	Endpoint value
NC(=O)c1cn(-c2ccc(O)c(Cl)c2)c2cc(-c3ccncc3)ccc2c1=O	human calpain I (Homo sapiens, UniProt P07384)	pIC50	5.70
NC(=O)c1cn(-c2ccc(O)cc2C(F)(F)F)c2cc(-c3ccncc3)ccc2c1=O	human calpain I (Homo sapiens, UniProt P07384)	pIC50	4.80
NC(=O)c1cn(-c2ccc(O)cc2)c2cc(-c3ccncc3)ccc2c1=O	human calpain I (Homo sapiens, UniProt P07384)	pIC50	5.70
NC(=O)c1cn(-c2ccc(O)c(O)c2)c2cc(-c3ccncc3)ccc2c1=O	human calpain I (Homo sapiens, UniProt P07384)	pIC50	5.15
